- test_target: T1, Cynomolgus Monkey CD3 epsilon protein (Cynomolgus monkey, UniProt Q95LI5 22-117)
- T1 construct: Bought protein; also called Cyno-Monkey CD3epsilon
- T1 sequence (looked up): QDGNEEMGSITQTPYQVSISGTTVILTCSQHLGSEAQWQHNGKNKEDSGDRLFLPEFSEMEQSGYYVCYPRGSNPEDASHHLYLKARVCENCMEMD
- assay_summary: ELISA, antigen coated on plate
property_label: EC50 (pM)
Report as a plain number; the unit pM is understood.

Please fill in: EC50 reported for WBP331_2.488.33 (antibody, V domains shown, Mouse monoclonal antibody from hybridoma; also called WBP3311_2.488.33; W3311-2.488.33) VH: QVQLQQSGPELVKPGTSVKISCKASGFSFTNYYIHWVKQRPGQGPEWIGWIFPGTVNTKYNEKFKGKATLTADTSSNTAFMQLSSLTSADSAVYFCARDSVGIYYFDFWGLGTTLTVSS VL: DIVMSQSPSSLAVSAGEKVTVSCKSSQSLLNNRTRKNYLAWYQQKPGQSPKLLIYWASTRESGVPDRFTGSGSGTDFTLTISSVQAEDLAVYYCTQSFILRTFGGGTKLEIK = 19
